# target_entity: ERBB2 (V777L) (Homo sapiens, UniProt P04626, V777L)
# Sequence (P04626 23-1255 V777L): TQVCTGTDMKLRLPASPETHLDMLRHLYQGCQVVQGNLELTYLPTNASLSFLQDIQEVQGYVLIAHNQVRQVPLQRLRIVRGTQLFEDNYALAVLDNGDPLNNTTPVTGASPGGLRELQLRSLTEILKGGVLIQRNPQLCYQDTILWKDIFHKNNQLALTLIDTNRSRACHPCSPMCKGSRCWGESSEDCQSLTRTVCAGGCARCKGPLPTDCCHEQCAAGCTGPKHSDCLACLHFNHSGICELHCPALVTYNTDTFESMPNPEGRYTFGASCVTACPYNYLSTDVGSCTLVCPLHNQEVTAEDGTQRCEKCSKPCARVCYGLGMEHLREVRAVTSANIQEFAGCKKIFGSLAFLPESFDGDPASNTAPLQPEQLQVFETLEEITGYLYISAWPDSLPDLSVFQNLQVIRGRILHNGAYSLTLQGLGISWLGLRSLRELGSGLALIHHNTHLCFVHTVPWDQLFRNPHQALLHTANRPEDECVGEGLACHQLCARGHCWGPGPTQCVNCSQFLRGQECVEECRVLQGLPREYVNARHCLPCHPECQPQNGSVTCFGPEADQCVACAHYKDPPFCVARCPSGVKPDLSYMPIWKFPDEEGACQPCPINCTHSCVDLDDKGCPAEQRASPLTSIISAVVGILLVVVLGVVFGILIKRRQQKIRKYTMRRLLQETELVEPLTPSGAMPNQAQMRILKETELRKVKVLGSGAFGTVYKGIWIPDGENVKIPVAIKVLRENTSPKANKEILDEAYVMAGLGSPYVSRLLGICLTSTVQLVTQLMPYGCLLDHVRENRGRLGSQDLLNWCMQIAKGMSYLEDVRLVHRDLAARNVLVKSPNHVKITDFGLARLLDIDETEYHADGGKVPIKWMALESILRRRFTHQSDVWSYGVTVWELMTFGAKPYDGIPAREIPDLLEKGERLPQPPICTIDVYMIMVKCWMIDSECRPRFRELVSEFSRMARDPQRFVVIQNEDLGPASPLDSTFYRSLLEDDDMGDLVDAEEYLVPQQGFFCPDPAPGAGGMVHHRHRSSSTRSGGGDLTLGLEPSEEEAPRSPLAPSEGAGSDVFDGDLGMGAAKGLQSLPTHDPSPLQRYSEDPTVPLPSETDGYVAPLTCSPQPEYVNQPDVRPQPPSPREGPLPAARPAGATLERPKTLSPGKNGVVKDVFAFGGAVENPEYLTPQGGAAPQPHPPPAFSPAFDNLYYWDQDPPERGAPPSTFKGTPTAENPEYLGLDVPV
# test_name: Reaction Biology kinase activity assay (33P-ATP, HotSpot)
# Format: biochemical
# conditions: final enzyme concentration 40 nM; 100 μM 33P-ATP; 20 min preincubation, 2 hours at 25° C.
endpoint: IC50 (nM)
Give the value, in units of nM, as a plain number.

{"compound": "CC#CC(=O)Nc1ccc2ncnc(Nc3ccc(Oc4ccn5ncnc5c4)c(C)c3)c2c1", "IC50 (nM)": 1.38}

Proceeding to the next compound to report its IC50.
Give ERBB2 (V777L) (Homo sapiens, UniProt P04626, V777L) IC50 for Cc1cc(Nc2ncnc3ccc(NC4=NC(C)(C)CO4)cc23)ccc1Oc1ccn2ncnc2c1 [Tucatinib, tucatinib, reference compound]
4.3

----------
# target_entity: phosphorylated ERBB2 (pERBB2) (Homo sapiens)
# Construct: endogenous in cells
# Sequence (P04626 23-1255): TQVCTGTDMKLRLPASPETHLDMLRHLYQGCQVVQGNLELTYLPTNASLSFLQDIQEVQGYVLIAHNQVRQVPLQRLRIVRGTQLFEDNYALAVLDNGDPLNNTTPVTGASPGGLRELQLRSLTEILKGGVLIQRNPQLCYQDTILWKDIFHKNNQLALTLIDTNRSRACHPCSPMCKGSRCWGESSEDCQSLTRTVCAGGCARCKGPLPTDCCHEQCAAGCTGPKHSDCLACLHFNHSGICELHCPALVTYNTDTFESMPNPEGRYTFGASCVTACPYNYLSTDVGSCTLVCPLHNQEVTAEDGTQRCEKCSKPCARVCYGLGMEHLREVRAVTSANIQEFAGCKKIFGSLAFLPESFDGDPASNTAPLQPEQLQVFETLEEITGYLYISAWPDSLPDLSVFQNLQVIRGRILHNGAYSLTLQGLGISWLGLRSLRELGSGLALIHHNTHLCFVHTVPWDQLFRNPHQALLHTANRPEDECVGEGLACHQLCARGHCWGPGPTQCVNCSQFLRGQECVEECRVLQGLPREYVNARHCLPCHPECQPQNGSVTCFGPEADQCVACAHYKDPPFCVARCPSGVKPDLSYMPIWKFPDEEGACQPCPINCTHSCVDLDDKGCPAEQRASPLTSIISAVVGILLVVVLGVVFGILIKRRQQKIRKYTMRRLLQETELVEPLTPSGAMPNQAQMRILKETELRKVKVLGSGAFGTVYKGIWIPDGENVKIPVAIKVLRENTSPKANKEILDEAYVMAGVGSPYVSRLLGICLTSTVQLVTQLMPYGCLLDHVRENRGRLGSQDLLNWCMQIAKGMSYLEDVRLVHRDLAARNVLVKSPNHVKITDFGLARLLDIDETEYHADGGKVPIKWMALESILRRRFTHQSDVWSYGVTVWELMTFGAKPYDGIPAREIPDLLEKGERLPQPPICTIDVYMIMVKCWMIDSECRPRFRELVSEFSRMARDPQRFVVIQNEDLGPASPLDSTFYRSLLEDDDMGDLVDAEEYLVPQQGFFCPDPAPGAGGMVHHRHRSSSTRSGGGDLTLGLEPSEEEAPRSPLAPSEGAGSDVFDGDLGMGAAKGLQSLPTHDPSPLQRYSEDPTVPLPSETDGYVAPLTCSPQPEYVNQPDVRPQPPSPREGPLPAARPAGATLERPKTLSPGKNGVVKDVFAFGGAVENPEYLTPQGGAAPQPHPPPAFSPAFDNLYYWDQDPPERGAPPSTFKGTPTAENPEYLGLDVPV
# test_name: Detection of phosphorylated ERBB2 (pERBB2) by ELISA in BT-474 cells
# conditions: four hours incubation with compound, OD 450 nm
endpoint: pIC50
In plain terms, pIC50 is the concentration in mol/L turned into minus its base-10 logarithm.

Look over these answered cases.
{"substance_smiles": "CC#CC(=O)Nc1ccc2ncnc(Nc3ccc(Oc4ccc(C)nc4)cc3)c2c1", "pIC50": 7.36}
{"substance_smiles": "CC#CC(=O)Nc1cc2c(Nc3ccc(Oc4ccn5ncnc5c4)c(C)c3)ncnc2cc1OCCN1CCCC1", "pIC50": 8.02}
{"substance_smiles": "CC#CC(=O)Nc1cc2c(Nc3ccc(Oc4ccn5ncnc5c4)c(Cl)c3F)ncnc2cc1OCCN(C)C", "pIC50": 7.86}

Would you kindly share the measured pIC50 for CC#CC(=O)Nc1cc2c(Nc3ccc(Oc4ccn5ncnc5c4)c(C)c3)ncnc2cn1 ?
8.33

pIC50 for CC#CC(=O)Nc1cc2c(Nc3ccc(Oc4cnn(C)c(=O)c4)c(C)c3)ncnc2cc1OCCN(C)C ?
6.82

Query: pIC50; subject: Cc1cc(Nc2ncnc3cc(OCCN(C)C)c(NC(=O)C#CC4(C)CC4)cc23)ccc1Oc1ccn2ncnc2c1
7.60

----------
# target_entity: Ba/F3 ERBB2 A775_G776insYVMA (Homo sapiens, UniProt P04626, DUP772-775, cells depend on it)
# Construct: Ba/F3 cell lines were engineered to express human ERBB2 or EGFR kinases, rendering the cells IL-3 independent
# Sequence (P04626 with tags, fused parts or gaps DUP772-775): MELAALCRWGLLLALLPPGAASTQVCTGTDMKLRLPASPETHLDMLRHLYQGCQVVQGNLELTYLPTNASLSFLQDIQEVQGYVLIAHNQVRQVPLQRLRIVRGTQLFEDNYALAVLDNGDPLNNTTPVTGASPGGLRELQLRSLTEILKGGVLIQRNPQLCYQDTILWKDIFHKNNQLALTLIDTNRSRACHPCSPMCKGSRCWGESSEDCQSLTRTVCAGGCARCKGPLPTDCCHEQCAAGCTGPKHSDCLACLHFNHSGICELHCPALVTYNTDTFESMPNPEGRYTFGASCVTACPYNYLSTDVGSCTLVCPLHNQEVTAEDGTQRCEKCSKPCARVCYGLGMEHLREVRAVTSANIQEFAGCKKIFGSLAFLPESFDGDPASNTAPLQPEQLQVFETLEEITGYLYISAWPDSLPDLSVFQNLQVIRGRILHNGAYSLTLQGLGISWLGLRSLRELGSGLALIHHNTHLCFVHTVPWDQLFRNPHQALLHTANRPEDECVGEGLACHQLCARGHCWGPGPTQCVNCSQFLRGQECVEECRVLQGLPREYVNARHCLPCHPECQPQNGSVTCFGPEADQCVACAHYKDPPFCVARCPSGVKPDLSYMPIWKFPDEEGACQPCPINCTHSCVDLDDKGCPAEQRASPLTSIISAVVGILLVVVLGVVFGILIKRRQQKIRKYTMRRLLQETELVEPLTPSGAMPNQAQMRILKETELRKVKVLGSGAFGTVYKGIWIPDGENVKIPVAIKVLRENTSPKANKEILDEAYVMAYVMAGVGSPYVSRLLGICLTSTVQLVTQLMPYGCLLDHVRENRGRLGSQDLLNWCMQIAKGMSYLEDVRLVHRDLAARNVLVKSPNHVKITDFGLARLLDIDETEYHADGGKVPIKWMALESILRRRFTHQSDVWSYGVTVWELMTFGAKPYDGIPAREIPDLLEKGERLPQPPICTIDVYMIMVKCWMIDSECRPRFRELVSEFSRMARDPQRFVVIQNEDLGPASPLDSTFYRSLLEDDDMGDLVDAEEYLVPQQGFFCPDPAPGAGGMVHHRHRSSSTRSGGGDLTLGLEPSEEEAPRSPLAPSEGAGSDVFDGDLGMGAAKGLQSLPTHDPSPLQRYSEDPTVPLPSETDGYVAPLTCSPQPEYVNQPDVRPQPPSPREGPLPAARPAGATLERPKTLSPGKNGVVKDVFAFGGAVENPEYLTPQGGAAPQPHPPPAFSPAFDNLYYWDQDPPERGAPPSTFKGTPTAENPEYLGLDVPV
# test_name: Cell viability assay (CellTiter Glo)
# Type: cell-based, mouse
# conditions: 72 hours; 300 cells per well, 384-well plates (Table B5); read-out: Cell Line: Ba/F3 ERBB2 A775 G776ins YVMA IC50
endpoint: GI50

Fill in the blank: the reported GI50 of CC#CC(=O)Nc1cc2c(Nc3ccc(Oc4ccn5ncnc5c4)c(Cl)c3F)ncnc2cc1OCCN(C)C is ____.
9.32 nM

Endpoint output: GI50 of CC#CC(=O)Nc1cc2c(Nc3ccc(Oc4ccn5ncnc5c4)c(C4CC4)c3)ncnc2cc1OCCN(C)C . Value?
86.8 nM

What does the data say about its GI50? Entry: Cc1cc(Nc2ncnc3ccc(NC(=O)C#CC4(C)CC4)cc23)ccc1Oc1ccn2ncnc2c1
5.11 nM

----------
# target_entity: Ba/F3 ERBB2-L755S (Homo sapiens, UniProt P04626, L755S, cells depend on it)
# Construct: Ba/F3 cell lines were engineered to express human ERBB2 or EGFR kinases, rendering the cells IL-3 independent
# Sequence (P04626 whole entry L755S): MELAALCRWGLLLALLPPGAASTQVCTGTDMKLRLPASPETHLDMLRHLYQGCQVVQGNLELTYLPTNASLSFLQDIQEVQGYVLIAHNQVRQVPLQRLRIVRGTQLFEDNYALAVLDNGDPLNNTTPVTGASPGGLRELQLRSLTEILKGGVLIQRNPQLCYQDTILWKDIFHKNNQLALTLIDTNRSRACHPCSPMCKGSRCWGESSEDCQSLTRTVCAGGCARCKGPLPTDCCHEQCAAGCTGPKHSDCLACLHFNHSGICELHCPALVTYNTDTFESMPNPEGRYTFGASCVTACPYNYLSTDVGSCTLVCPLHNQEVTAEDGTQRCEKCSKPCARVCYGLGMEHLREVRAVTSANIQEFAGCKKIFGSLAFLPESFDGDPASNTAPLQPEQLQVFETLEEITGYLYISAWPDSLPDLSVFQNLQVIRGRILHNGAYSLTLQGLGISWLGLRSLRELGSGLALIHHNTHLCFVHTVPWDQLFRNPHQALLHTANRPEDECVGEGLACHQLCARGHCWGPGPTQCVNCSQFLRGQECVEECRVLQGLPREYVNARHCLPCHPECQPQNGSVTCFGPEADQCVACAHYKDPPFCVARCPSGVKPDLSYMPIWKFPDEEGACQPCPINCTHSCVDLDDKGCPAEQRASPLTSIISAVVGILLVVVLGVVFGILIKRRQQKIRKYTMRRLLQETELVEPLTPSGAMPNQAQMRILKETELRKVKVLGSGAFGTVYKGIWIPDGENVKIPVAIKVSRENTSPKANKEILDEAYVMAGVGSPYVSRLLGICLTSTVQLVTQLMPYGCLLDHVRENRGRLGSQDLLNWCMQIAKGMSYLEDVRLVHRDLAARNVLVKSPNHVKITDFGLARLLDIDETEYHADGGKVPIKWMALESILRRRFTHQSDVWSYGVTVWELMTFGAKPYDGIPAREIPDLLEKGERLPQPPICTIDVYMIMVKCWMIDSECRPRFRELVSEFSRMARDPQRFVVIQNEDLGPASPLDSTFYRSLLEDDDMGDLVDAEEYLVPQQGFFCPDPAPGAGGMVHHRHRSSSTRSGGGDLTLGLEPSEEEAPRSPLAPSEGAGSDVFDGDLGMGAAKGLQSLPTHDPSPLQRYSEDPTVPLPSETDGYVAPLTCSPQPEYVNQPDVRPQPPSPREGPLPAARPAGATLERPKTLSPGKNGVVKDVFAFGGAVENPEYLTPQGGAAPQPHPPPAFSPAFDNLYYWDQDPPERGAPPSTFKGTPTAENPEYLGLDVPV
# test_name: Cell viability assay (CellTiter Glo)
# Format: cell-based, mouse
# conditions: 72 hours; 3000 cells per well, 96-well plates; read-out: Cell viability IC50, nM, Ba/F3 ERBB2-L755S
GI50 strictly less than 80 nM = 1. Otherwise -1.

Please review the entries below; each comes with its answer.
{"compound": "CC#CC(=O)Nc1ccc2ncnc(Nc3ccc(Cc4ccn5ncnc5c4)cc3)c2c1 [Compound 14]", "target_entity": "Ba/F3 ERBB2-L755S (Homo sapiens, UniProt P04626, L755S, cells depend on it)", "qualitative_label": 1}
{"compound": "CC#CC(=O)Nc1ccc2ncnc(Nc3ccc(Oc4ccc(C)nc4)c(C)c3)c2c1 [Compound 5]", "target_entity": "Ba/F3 ERBB2-L755S (Homo sapiens, UniProt P04626, L755S, cells depend on it)", "qualitative_label": 1}
{"compound": "CC#CC(=O)Nc1cc2c(Nc3ccc(Oc4ccn5ncnc5c4)c(C)c3)ncnc2cc1OCCN(C)C [Compound 150]", "target_entity": "Ba/F3 ERBB2-L755S (Homo sapiens, UniProt P04626, L755S, cells depend on it)", "qualitative_label": 1}
{"compound": "CC#CC(=O)N(C)c1ccc2ncnc(Nc3ccc(Oc4ccn5ncnc5c4)cc3)c2c1 [Compound 8]", "target_entity": "Ba/F3 ERBB2-L755S (Homo sapiens, UniProt P04626, L755S, cells depend on it)", "qualitative_label": -1}
{"compound": "CC#CC(=O)Nc1ccc2ncnc(Nc3ccc(Oc4ccc(C)nc4)cc3)c2c1 [Compound 9]", "target_entity": "Ba/F3 ERBB2-L755S (Homo sapiens, UniProt P04626, L755S, cells depend on it)", "qualitative_label": 1}

Alright, here's another compound for you.
Is GI50 of Cc1cc(Nc2ncnc3ccc(NC4=NC(C)(C)CO4)cc23)ccc1Oc1ccn2ncnc2c1 [Tucatinib, tucatinib, reference compound] strictly below 80 nM?
-1

All figures here come from patent US20230265098A1.
